B1: TPR 5TU (parent)
chain: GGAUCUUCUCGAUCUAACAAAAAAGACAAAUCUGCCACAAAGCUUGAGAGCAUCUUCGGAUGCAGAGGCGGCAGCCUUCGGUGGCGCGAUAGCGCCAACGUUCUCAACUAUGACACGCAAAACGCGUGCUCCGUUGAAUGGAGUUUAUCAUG

# Variants of: B1
# Assay Summary: polymerase ribozyme fitness, log enrichment relative to wild type (log ratio); higher = more active; in vitro selection for triplet polymerase activity
Variants at the floor of the assay were thinned out.

{"columns": ["Variant Name", "Reported Relation", "polymerase ribozyme fitness (log ratio)"],
 "data": [
  ["A3G A113G C118G", "=", -3.65],
  ["A12U A21C G70C G84U C132A G136A A142U", "≤", -4.2],
  ["A17U G42A A91C A122U G136C", "≤", -4.2],
  ["G42C G68U C85U G128A A150C", "≤", -4.2],
  ["A40C A113U C118U G136A", "=", -2.68],
  ["U55A G59A U148G", "=", -2.52],
  ["A28U U90G C99U G141U U151G", "≤", -4.2],
  ["A40G G124U", "=", -2.64],
  ["C5U A40C C54G G92A A121U C132U U146A", "≤", -4.2],
  ["A37G G83U G84A A142G", "≤", -4.2],
  ["A21U G80U G94A A147U", "=", -0.607],
  ["G70A C76A C79G A91U", "≤", -4.2],
  ["G46A C85A G136U G140U A142G", "≤", -4.2],
  ["A21U G25C A29U U33A A37U A66C G70C G88U G124U", "≤", -4.2],
  ["C96A A115U A147C", "=", -3.48],
  ["A21U U55A C85U U148A", "=", -4.07],
  ["U45A A52C", "≤", -4.2],
  ["A41G U53G", "=", -0.77],
  ["C54G G74C G81A G88C", "≤", -4.2],
  ["A16U C54G A97C C116G G124U A137C", "≤", -4.2],
  ["A21U C96A", "=", -0.443],
  ["A3U C18A A22U A37G C85U", "=", -3.29],
  ["C8U U53A", "=", -3.41],
  ["A21C A37C G84A", "=", 0.0671],
  ["G59C A110G", "=", -3.79],
  ["U55C C85A", "=", -1.24],
  ["C36U C54U C87U C96G U146G G152A", "≤", -4.2],
  ["G50U C96A C116G U144G", "=", -1.25],
  ["C57U C105A", "=", -0.73],
  ["A30U U77A G84U A91C G94C C99G G141C", "≤", -4.2],
  ["C75A G86U", "≤", -4.2],
  ["A60G C87U U101A", "=", -0.517],
  ["G58A G92A C123G", "=", -4.01],
  ["C85G A106C G141C", "=", -3.91],
  ["G80A G81C C95G U145G", "=", -1.72],
  ["U44A C51U C76U C95A", "≤", -4.2],
  ["C85A C116A", "=", 0.744],
  ["G83A G128A", "=", -3.83],
  ["A49C G50C A91U C96G", "≤", -4.2],
  ["U9C A22G A23C G25C G83C", "≤", -4.2],
  ["G25A C32A A40C C123A G124A A138C", "≤", -4.2],
  ["A22G A52G G128C", "=", -3.48],
  ["U45A C85A C93U C96U C118A C132A", "≤", -4.2],
  ["U44A C87A G126U", "≤", -4.2],
  ["G46A A52G C85A", "=", -2.54],
  ["C72U G152A", "=", -2.42],
  ["U6C C129G", "=", -3.13],
  ["A20U A22C U82G G86U U101G C103G G143U", "≤", -4.2],
  ["A37G C51U A66U G83A U151G", "≤", -4.2],
  ["C14G A20G A24U C72G U82G A97G U101C C103G G136A", "≤", -4.2],
  ["A20U G74A A137U", "≤", -4.2],
  ["C8U C85G", "=", -3.44],
  ["G42C G84U A138G U146G", "≤", -4.2],
  ["C18G U56A A73U G83C", "=", -3.86],
  ["A60G A107U", "=", -3.1],
  ["A49U A97U A106G C116U", "=", -2.93],
  ["C93G A107G", "≤", -4.2],
  ["C38U U55G C85A", "=", -2.3],
  ["G48U G126U", "=", -0.307],
  ["C5A A16U A24U C35A U56A C85G U109G U144C", "≤", -4.2],
  ["A17G A23U A26U C116G A138C A142C", "≤", -4.2],
  ["U6G C69U G84A A106C", "=", -2.47],
  ["C5A A47U G84A G124U", "=", -1.14],
  ["C27A A66C A73C G92U U148C", "≤", -4.2],
  ["C14A G86C", "=", -3.85],
  ["G88U U130A A147C", "≤", -4.2],
  ["G59U C96A", "=", -0.703],
  ["C93G A97U A121G", "≤", -4.2],
  ["C79U C108G U109G U139G U145C", "≤", -4.2],
  ["C76A C105U", "=", -2.47],
  ["G50U C87U G136U", "=", -2.29],
  ["G11C G42U U55G C76U", "≤", -4.2],
  ["G59A U90G C95G", "≤", -4.2],
  ["G25C U56A U104C A106U A113G U139G U145A", "≤", -4.2],
  ["A19C C85U", "=", -0.536],
  ["C75U C96A G128U", "=", -3.56],
  ["C54G C72U U82A U90G G141C", "≤", -4.2],
  ["G84U A89U U104G U127A", "≤", -4.2],
  ["A3U C35A C43A A52G G88A C108G", "≤", -4.2],
  ["C54G C96A", "=", -2.41],
  ["G81C C103U U134G", "=", -2.49],
  ["A12U A21U A39C G92A U109G A137G", "≤", -4.2],
  ["A138U U151C", "=", -4.01],
  ["A60G U78A A106G C118U", "≤", -4.2],
  ["A49C C95U C96G", "=", -3.85],
  ["C51U C69A G84U A91G G133A U144A A147U", "≤", -4.2],
  ["G34A C85U U101G", "=", -3.5],
  ["C8U A24C C36U G48A C95G C105U U145A", "≤", -4.2],
  ["A16C A40C G59A C93U A106G", "=", -2.02],
  ["U53A U148G", "=", -4.01],
  ["C32U A49C", "=", -4.13]
]}
